Please provide measured Max MFI for the entries that follow.
molecular target: T1, GPC3 on HepG2 cells (human, UniProt P51654 25-554); experiment: FACS on HepG2 cells
T1 construct: whole, on cells; also called glypican-3
Could you keep your reply to the number by itself?

get_value(item= hAb007LH2L1b (antibody, human IgG1, V domains shown, Humanized F3.81.19, H2+L1b) VH: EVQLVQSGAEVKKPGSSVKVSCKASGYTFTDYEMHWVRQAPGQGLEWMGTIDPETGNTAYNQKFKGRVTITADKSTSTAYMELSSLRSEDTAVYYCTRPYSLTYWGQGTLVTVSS VL: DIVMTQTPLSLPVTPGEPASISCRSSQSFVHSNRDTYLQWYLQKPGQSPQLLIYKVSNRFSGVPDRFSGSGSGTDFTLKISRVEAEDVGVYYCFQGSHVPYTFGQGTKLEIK , readout=Max MFI) returns 5320

get_value(item= hAb003LH2L1b (antibody, human IgG1, V domains shown, Humanized F2.154.1, H2+L1b) VH: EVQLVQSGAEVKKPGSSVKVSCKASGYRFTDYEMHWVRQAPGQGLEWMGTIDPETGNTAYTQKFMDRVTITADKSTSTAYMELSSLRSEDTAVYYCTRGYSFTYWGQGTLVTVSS VL: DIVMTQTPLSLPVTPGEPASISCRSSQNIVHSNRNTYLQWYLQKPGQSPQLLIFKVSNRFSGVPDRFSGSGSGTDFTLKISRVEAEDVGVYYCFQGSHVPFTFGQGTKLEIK , readout=Max MFI) returns 4620

get_value(item= hAb006LH3L1d (antibody, human IgG1, V domains shown, Humanized F3.38.7, H3+L1d) VH: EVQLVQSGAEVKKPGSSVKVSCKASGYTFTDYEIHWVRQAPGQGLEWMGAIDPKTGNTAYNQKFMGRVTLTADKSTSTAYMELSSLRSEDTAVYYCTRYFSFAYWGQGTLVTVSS VL: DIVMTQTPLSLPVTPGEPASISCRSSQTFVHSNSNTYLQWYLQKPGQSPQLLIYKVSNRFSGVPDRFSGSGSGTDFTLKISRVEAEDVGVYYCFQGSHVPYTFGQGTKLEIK , readout=Max MFI) returns 3500

get_value(item= hAb001H1L1b (antibody, human IgG1, V domains shown, Humanized F2.169.2, H1+L1b) VH: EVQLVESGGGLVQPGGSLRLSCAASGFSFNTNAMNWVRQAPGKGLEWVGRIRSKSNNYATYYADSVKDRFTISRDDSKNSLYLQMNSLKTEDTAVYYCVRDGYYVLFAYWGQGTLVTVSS VL: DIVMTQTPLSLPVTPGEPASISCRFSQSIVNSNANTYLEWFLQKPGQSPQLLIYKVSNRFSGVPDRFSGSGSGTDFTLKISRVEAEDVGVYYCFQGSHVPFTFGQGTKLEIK , readout=Max MFI) returns 4090

get_value(item= hAb006LH3L1c (antibody, human IgG1, V domains shown, Humanized F3.38.7, H3+L1c) VH: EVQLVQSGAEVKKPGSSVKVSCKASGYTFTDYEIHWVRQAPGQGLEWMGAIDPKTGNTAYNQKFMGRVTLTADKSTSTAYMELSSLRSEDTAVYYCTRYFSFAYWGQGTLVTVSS VL: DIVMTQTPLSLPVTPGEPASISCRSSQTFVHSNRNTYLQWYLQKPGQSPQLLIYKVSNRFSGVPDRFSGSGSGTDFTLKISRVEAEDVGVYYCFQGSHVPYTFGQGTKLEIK , readout=Max MFI) returns 3520

get_value(item= hAb005LH1L1b (antibody, human IgG1, V domains shown, Humanized F3.54.12, H1+L1b) VH: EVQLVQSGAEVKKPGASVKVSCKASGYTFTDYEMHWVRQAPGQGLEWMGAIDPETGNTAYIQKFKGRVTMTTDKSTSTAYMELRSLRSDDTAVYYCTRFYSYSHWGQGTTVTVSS VL: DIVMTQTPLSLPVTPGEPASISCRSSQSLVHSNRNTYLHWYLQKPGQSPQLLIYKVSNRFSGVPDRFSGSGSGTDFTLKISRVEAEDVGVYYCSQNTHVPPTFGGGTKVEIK , readout=Max MFI) returns 4800
